Entry source: patent US20230037815A1

Please provide measured pKd for the entries that follow.
Biological target: T1, human CD19 (human, UniProt P15391 20-291, biotinylated in the Biacore assay of Table 11)
T1 construct: also called isolated CD19; Human CD19 Protein
T1 sequence (looked up): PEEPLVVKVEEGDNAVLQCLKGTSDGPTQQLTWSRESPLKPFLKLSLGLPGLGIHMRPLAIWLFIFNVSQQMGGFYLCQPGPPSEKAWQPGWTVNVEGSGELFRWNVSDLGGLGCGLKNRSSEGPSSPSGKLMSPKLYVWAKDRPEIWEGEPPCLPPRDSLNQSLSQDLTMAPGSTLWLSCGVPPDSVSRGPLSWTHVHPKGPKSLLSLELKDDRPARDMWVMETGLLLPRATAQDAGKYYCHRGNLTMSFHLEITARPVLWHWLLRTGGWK
Test: SPR Biacore 8K, captured biotinylated CD19, scFv analyte
One number for each entry, as −log10 of the molar value.

CNG-CD19-707 VL-VH scFv (scFv) scFv: EIVLTQSPATLSLSPGERATLSCSASSSVGYMHWYQQKPGQAPRLLIYDTSKLASGIPARFSGSGSGTDFTLTISSLEPEDFAVYYCFQGSVYPFTFGQGTKLEIKGGGGSGGGGSGGGGSQVQLQESGPGLVKPSQTLSLTCTVSGGSISTSTMGVGWIRQHPGKGLEWIGFIWWDDDKRYNPNLKSRVTMSVDTSKNQFSLKLSSVTAADTAVYYCARMELWSYYFDPWGQGTLVTVSS	10.91
CNG-CD19-701 VL-VH scFv (scFv) scFv: EIVLTQSPATLSLSPGERATLSCSASSSVGYMHWYQQKPGQAPRLLIYDTSKLASGIPARFSGSGSGTDFTLTISSLEPEDFAVYYCFQGSVYPFTFGQGTKLEIKGGGGSGGGGSGGGGSQVQLQESGPGLVKPSQTLSLTCTVSGGSISTSTMGVGWIRQHPGKGLEWIGFIWWDDDKRYNPNLKSRVTMSVDTSKNQFSLKLSSVTAADTAVYYCARMELWSYYFDYWGQGTLVTVSS	10.83
CNG-CD19-710 VL-VH scFv (scFv) scFv: EIVLTQSPATLSLSPGERATLSCSASSSFSYMHWYQQKPGQAPRLLIYDTSKLASGIPARFSGSGSGTDFTLTISSLEPEDFAVYYCFQGSVYPFTFGQGTKLEIKGGGGSGGGGSGGGGSQVQLQESGPGLVKPSQTLSLTCTVSGVSISTSSMGVGWIRQHPGKGLEWIGHAWWDDDKRYNPALKSRVTISVDTSKNQFSLKLSSVTAADTAVYYCARMELWSYYFDPWGQGTLVTVSS	10.66

// switching to the query binder
Prompt: // lookup pKd for CNG-CD19-103 VL-VH scFv (scFv) scFv: DIVMTQTPLSLSVTPGQPASISCKSSQSLETATGTTYLNWYLQKPGQSPQLLIYRVSRRFSGVPDRFSGSGSGTDFTLKISRVEAEDVGVYYCLQLLEDPYSFGQGTKLEIKGGGGSGGGGSGGGGSQVQLVQSGAEVKKPGASVKVSCKASGYTFTDYIMHWVRQAPGQGLEWMGYINPYNDGSKYTEKFQGRVTMTSDTSISTAYMELSRLRSDDTAVYYCARGTYYYGPQLFDYWGQGTTVTVSS
Completion: 11.00
